Reported values of activity coefficient for individual entries
Protocol: activity coefficient (dimensionless); of the first substance listed, at infinite dilution; xn = mol fraction of the nth substance listed
Particulars: 388.15 K; 101 kPa; Liquid; Chromatography; x1 = 0
The response must contain the number and no unit.

[
  {
    "Molecule": "C1CCCCCCC1 [cyclooctane] + CCCCn1cc[n+](C)c1.CS(=O)(=O)[O-]",
    "activity coefficient": 53.6
  }
]

Report activity coefficient for Cc1cccc(C)c1 [1,3-dimethylbenzene] + CCCCn1cc[n+](C)c1.[Cl-] please. 15

Please look up its activity coefficient: C1CCCCC1 [cyclohexane] + CCCCn1cc[n+](C)c1.CS(=O)(=O)[O-] 33.8

Fill blank: measured activity coefficient of the molecule C1CCOC1 [tetrahydrofuran] + CCCCn1cc[n+](C)c1.COP(=O)([O-])OC is ____. 3.02

Field request: activity coefficient | item: C1CCOC1 [tetrahydrofuran] + CCCCn1cc[n+](C)c1.[Cl-] 5.7

Give its activity coefficient value. Item: CCCC(C)=O [pentan-2-one] + CCCCn1cc[n+](C)c1.[Cl-] 8.01

Consider the molecule shown here: C=CCCCCCC [oct-1-ene] + CCCCn1cc[n+](C)c1.COP(=O)([O-])OC What is its recorded activity coefficient? 26.2

---

Protocol: activity coefficient (dimensionless); of the first substance listed, at infinite dilution; xn = mol fraction of the nth substance listed
Particulars: 358.15 K; 101 kPa; Liquid; Chromatography; x1 = 0
Result type: activity coefficient
Answer with a bare number; do not write a unit.

Please review the entries below; each comes with its answer.
[
  {
    "Compound": "CCCC=O [butanal] + CCCCn1cc[n+](C)c1.COP(=O)([O-])OC",
    "activity coefficient": 2.66
  },
  {
    "Compound": "CCC(C)(C)OC [2-methoxy-2-methylbutane] + CCCCn1cc[n+](C)c1.[Cl-]",
    "activity coefficient": 34
  }
]

Reported activity coefficient for CCOCC [diethyl ether] + CCCCn1cc[n+](C)c1.[Cl-] : what is it? 19.3

Look up activity coefficient: Cc1ccccc1 [toluene] + CCCCn1cc[n+](C)c1.[Cl-] 7.78

Query (compound): C=Cc1ccccc1 [styrene] + CCCCn1cc[n+](C)c1.[Cl-] ; field requested: activity coefficient 4.96

---

Protocol: activity coefficient (dimensionless); of the first substance listed, at infinite dilution; xn = mol fraction of the nth substance listed
Particulars: 358.15 K; 101 kPa; Liquid; Chromatography; x1 = 0
Result type: activity coefficient
Lab note: record just the number, no unit beside it.

Can you look up the measured activity coefficient of C=COC(C)=O [vinyl acetate] + CCCCn1cc[n+](C)c1.CS(=O)(=O)[O-] for me? 3.47

---

Protocol: activity coefficient (dimensionless); of the first substance listed, at infinite dilution; xn = mol fraction of the nth substance listed
Particulars: 368.15 K; 101 kPa; Liquid; Chromatography; x1 = 0
Measured activity coefficient by item
Lab note: record the figure alone, no unit after it.

[
  {
    "Molecule": "CC#N [acetonitrile] + CCCCn1cc[n+](C)c1.COP(=O)([O-])OC",
    "activity coefficient": 0.92
  }
]

Dear colleague, I am looking for the recorded activity coefficient of the following molecule: C1CCCC1 [cyclopentane] + CCCCn1cc[n+](C)c1.COP(=O)([O-])OC 8.59

Form field: reported activity coefficient of c1ccccc1 [benzene] + CCCCn1cc[n+](C)c1.[Cl-] 4.59

Need activity coefficient, item CCc1ccccc1 [ethylbenzene] + CCCCn1cc[n+](C)c1.CS(=O)(=O)[O-] 8.61

I am curious: what activity coefficient value has been reported for CCCCCCCCCC [decane] + CCCCn1cc[n+](C)c1.CS(=O)(=O)[O-] ? 352
